Recorded values, source patent US20240182536A1.

Known HEK-Blue activity, +100 nM BP, DF-1,000,000 of a selection of binders
Biological target: T1, interleukin 18 binding protein (IL-18BP) (UniProt O95998 31-194)
T1 sequence (looked up): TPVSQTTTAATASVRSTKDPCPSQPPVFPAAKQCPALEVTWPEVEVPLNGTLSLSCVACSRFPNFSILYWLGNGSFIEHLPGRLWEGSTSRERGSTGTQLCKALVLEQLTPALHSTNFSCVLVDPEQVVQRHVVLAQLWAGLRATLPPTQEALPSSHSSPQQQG
Experiment: cell-based or functional assay
# output: bare number, no unit

binder | result
IL-18 variant K53D, S55E (ligand) YFGKLESKLSVIRNLNDQVLFIDQGNRPLFEDMTDSDMRDNAPRTIFIISMYDDEQPRGMAVTISVKSEKISTLSSENKIISFKEMNPPDNIKDTKSDIIFFQRSVPGHDNKMQFESSSYEGYFLASEKERDLFKLILKKEDELGDRSIMFTVQNED | 0.08
IL-18 variant K53H, S55H, N87D, H109I (ligand) YFGKLESKLSVIRNLNDQVLFIDQGNRPLFEDMTDSDMRDNAPRTIFIISMYHDHQPRGMAVTISVKSEKISTLSSENKIISFKEMDPPDNIKDTKSDIIFFQRSVPGIDNKMQFESSSYEGYFLASEKERDLFKLILKKEDELGDRSIMFTVQNED | 0.1

Let's switch to this binder now.
query: Give recorded HEK-Blue activity, +100 nM BP, DF-1,000,000. IL-18 variant T34N, S36Y, D40H, N41T, K53G, S55Y (ligand) YFGKLESKLSVIRNLNDQVLFIDQGNRPLFEDMNDYDMRHTAPRTIFIISMYGDYQPRGMAVTISVKSEKISTLSSENKIISFKEMNPPDNIKDTKSDIIFFQRSVPGHDNKMQFESSSYEGYFLASEKERDLFKLILKKEDELGDRSIMFTVQNED
result: 0.09
